Listed below: T/C values for each entry.
system: BDF1 mice, Adenocarcinoma 755 s.c., tumor weight T/C; assay: NCI In Vivo Anticancer Drug Screen. Data for tumor model Adenocarcinoma 755 (subcutaneous) in B6D2F1 (BDF1) mice; settings: endpoint: mean tumor weight; dose: 240.0 mg/kg/injection; schedule: Q01DX011 (ip); vehicle: carboxymethylcellulose (CMC); higher = larger tumour
VALUE_KIND: T/C

COMPOUND: Cn1c(=N)nc(SCc2ccccc2Cl)c2[nH]cnc21
RESULT: 16 % of control
//
COMPOUND: CC(=O)OCC1OC(n2c(Br)nc3c(N)ncnc32)C(OC(C)=O)C1OC(C)=O (configuration not stated)
RESULT: 113 % of control
//
COMPOUND: CCOC=Nc1c(N)ncnc1F
RESULT: 55 % of control
//
COMPOUND: CNC=O
RESULT: 101 % of control
//
COMPOUND: Nc1ncnc2c1nc(Br)n2C1CC(O)C(CO)O1 (configuration not stated)
RESULT: 123 % of control
//
COMPOUND: O=c1[nH]cnc2nc(S(=O)(=O)F)[nH]c12
RESULT: 115 % of control
//
COMPOUND: OCC1OC(n2cnc3c(Br)ncnc32)C(O)C1O (configuration not stated)
RESULT: 49 % of control

---

Listed below: T/C values for each entry.
tested on: BDF1 mice, Adenocarcinoma 755 s.c., tumor weight T/C; assay: NCI In Vivo Anticancer Drug Screen. Data for tumor model Adenocarcinoma 755 (subcutaneous) in B6D2F1 (BDF1) mice; details: endpoint: mean tumor weight; dose: 200.0 mg/kg/injection; schedule: Q01DX011 (ip); vehicle: methylcellulose (MC); higher = larger tumour

COMPOUND: OCCNc1ncnc2c1ncn2C1OC(CO)C(O)C1O (stereo not given)
T/C: 7 % of control

COMPOUND: c1cc(CSc2ncnc3nc[nH]c23)ccn1
T/C: 2 % of control

COMPOUND: CCCCNc1nc(N)nc(Nc2ccc(Br)cc2)c1N=O
T/C: 40 % of control

COMPOUND: CCCCn1cnc2c(SCc3ccc(Cl)cc3Cl)nc(N)nc21
T/C: 35 % of control

COMPOUND: CCC(C)Cn1cnc2c(SCc3ccccc3F)nc(N)nc21 (stereo not given)
T/C: 30 % of control

---

tested on: BDF1 mice, Adenocarcinoma 755 s.c., tumor weight T/C; assay: NCI In Vivo Anticancer Drug Screen. Data for tumor model Adenocarcinoma 755 (subcutaneous) in B6D2F1 (BDF1) mice; conditions: endpoint: mean tumor weight; dose: 75.0 mg/kg/injection; schedule: Q01DX011 (ip); vehicle: methylcellulose (MC); higher = larger tumour

COMPOUND: CC1CCCN(/N=N/c2nc3c([nH]2)c(=O)n(C)c(=O)n3C)C1 (configuration not stated)
T/C: 61 % of control
--
COMPOUND: Cc1ccc(CSc2ncnc3nc[nH]c23)cc1C
T/C: 32 % of control
--
COMPOUND: Cn1c[n+](C2OC(CO)C(O)C2O)c2nc([O-])[nH]c(=O)c21 (configuration not stated)
T/C: 103 % of control
--
COMPOUND: Fc1cccc(CSc2ncnc3c2ncn3C2CCCS2)c1 (configuration not stated)
T/C: 62 % of control
--
COMPOUND: Cn1c(=O)c2c(nc(C(O)(c3ccccc3)c3ccccc3)n2C)n(C)c1=O
T/C: 66 % of control
--
COMPOUND: Nc1nc(SCc2ccc(Cl)cc2)c2ncn(C3OC(CO)C(O)C3O)c2n1 (configuration not stated)
T/C: 1 % of control
--
COMPOUND: Cn1cnc2nc[nH]c2c1=S
T/C: 75 % of control
--
COMPOUND: CC(C)Cn1cnc2c(SCc3ccc(Cl)cc3Cl)nc(N)nc21
T/C: 113 % of control
--
COMPOUND: CSc1ncnc2c1ncn2C1CCCS1 (configuration not stated)
T/C: 66 % of control
--
COMPOUND: Brc1ncnc2c1ncn2C1CCCS1 (configuration not stated)
T/C: 66 % of control
--
COMPOUND: Cc1ccc(CNc2ncnc3c2cnn3C2CCCCO2)cc1 (configuration not stated)
T/C: 88 % of control
--
COMPOUND: Cn1c(=O)c2c(nc(C#N)n2C)n(C)c1=O
T/C: 102 % of control

---

tested on: BDF1 mice, Adenocarcinoma 755 s.c., tumor weight T/C; test: NCI In Vivo Anticancer Drug Screen. Data for tumor model Adenocarcinoma 755 (subcutaneous) in B6D2F1 (BDF1) mice; details: endpoint: mean tumor weight; dose: 150.0 mg/kg/injection; schedule: Q01DX011 (ip); vehicle: methylcellulose (MC); higher = larger tumour
Listed below: T/C values for each entry.

COMPOUND: CC(C)Cn1cnc2c(SCc3ccc(Br)cc3)nc(N)nc21
T/C: 4 % of control
//
COMPOUND: Nc1nc(SCC(=O)c2ccccc2)c2ncn(C3OC(CO)C(O)C3O)c2n1 (stereo not given)
T/C: 5 % of control
//
COMPOUND: CSc1nc(N)nc2c1ncn2Cc1ccccc1
T/C: 53 % of control
//
COMPOUND: Cc1ccc(N=Nc2c(S(=O)(=O)O)cc3cc(NC(=O)Nc4ccc5c(O)c(N=Nc6ccc7cc(S(=O)(=O)O)ccc7c6)c(S(=O)(=O)O)cc5c4)ccc3c2O)cc1
T/C: 30 % of control
//
COMPOUND: CC(C)CCS(=O)(=O)OCCCCOS(=O)(=O)CCC(C)C
T/C: 89 % of control

---

test system: BDF1 mice, Adenocarcinoma 755 s.c., tumor weight T/C; assay: NCI In Vivo Anticancer Drug Screen. Data for tumor model Adenocarcinoma 755 (subcutaneous) in B6D2F1 (BDF1) mice; details: endpoint: mean tumor weight; dose: 62.0 mg/kg/injection; schedule: Q01DX011 (ip); vehicle: carboxymethylcellulose (CMC); higher = larger tumour
VALUE_KIND: T/C

MOLECULE: S=c1nc[nH]c2c1ncn2C1CCCCC1
RESULT: 117 % of control
--
MOLECULE: NC(=O)c1n[nH]nc1N=Nc1c(O)ccc2ccccc12
RESULT: 204 % of control
--
MOLECULE: CCCCSc1ncnc2nc[nH]c12
RESULT: 4 % of control
--
MOLECULE: CCOC(=O)CCCc1ccc(N=NN(C)C(C)CC)cc1 (stereo unspecified)
RESULT: 64 % of control
--
MOLECULE: CN(C)/N=N/c1nc[nH]c1C(N)=O
RESULT: 47 % of control
--
MOLECULE: CN(C)N=Nc1ccc(CCCC(=O)NN)cc1
RESULT: 10 % of control

---

Listed below: T/C values for each entry.
system: BDF1 mice, Adenocarcinoma 755 s.c., tumor weight T/C; experiment: NCI In Vivo Anticancer Drug Screen. Data for tumor model Adenocarcinoma 755 (subcutaneous) in B6D2F1 (BDF1) mice; conditions: endpoint: mean tumor weight; dose: 6.0 mg/kg/injection; schedule: Q01DX011 (ip); vehicle: other; higher = larger tumour
VALUE_KIND: T/C

COMPOUND: CCNS(=O)(=O)c1ncnc2nc[nH]c12
MEASURED_TARGET: BDF1 mice, Adenocarcinoma 755 s.c., tumor weight T/C
RESULT: 94 % of control
//
COMPOUND: Nc1c(Br)cc2c(c1Br)Cc1cc([N+](=O)[O-])ccc1-2
MEASURED_TARGET: BDF1 mice, Adenocarcinoma 755 s.c., tumor weight T/C
RESULT: 94 % of control
//
COMPOUND: CC(=O)Nc1c(Cl)cc2c(c1Cl)Cc1cc([N+](=O)[O-])ccc1-2
MEASURED_TARGET: BDF1 mice, Adenocarcinoma 755 s.c., tumor weight T/C
RESULT: 87 % of control
//
COMPOUND: CC(C)CSc1ncnc2nc[nH]c12
MEASURED_TARGET: BDF1 mice, Adenocarcinoma 755 s.c., tumor weight T/C
RESULT: 45 % of control
//
COMPOUND: CC(C)CNS(=O)(=O)c1ncnc2nc[nH]c12
MEASURED_TARGET: BDF1 mice, Adenocarcinoma 755 s.c., tumor weight T/C
RESULT: 81 % of control
//
COMPOUND: COCCCNS(=O)(=O)c1ncnc2nc[nH]c12
MEASURED_TARGET: BDF1 mice, Adenocarcinoma 755 s.c., tumor weight T/C
RESULT: 105 % of control
//
COMPOUND: c1nc(N2CC2)c2cnn(C3CCCCO3)c2n1 (configuration not stated)
MEASURED_TARGET: BDF1 mice, Adenocarcinoma 755 s.c., tumor weight T/C
RESULT: 81 % of control

---

Listed below: T/C values for each entry.
test system: BDF1 mice, Adenocarcinoma 755 s.c., tumor weight T/C; test: NCI In Vivo Anticancer Drug Screen. Data for tumor model Adenocarcinoma 755 (subcutaneous) in B6D2F1 (BDF1) mice; details: endpoint: mean tumor weight; dose: 25.0 mg/kg/injection; schedule: Q01DX011 (ip); vehicle: other; higher = larger tumour

STRUCTURE_STRING: CC(=O)NCCc1ccccc1
T/C: 71 % of control
--
STRUCTURE_STRING: Oc1ccc2ccccc2c1-c1c(O)ccc2ccccc12
T/C: 71 % of control
--
STRUCTURE_STRING: CCNS(=O)(=O)c1ncnc2nc[nH]c12
T/C: 15 % of control
--
STRUCTURE_STRING: CC(=O)N(c1ccccc1)c1ccccc1
T/C: 97 % of control
